Tested on: house fly (Musca domestica)
Assay: Local application to house fly, LD50 by Probit method (Test Example 4)
Format: in vivo
Settings: topical, 24 h
Known LD50 of a selection of molecules
Form entry: value (mg/kg) — number only.

# count of solved cases: 4
CN(SN(CC(=O)OC1CCCCC1)CC(=O)OC1CCCCC1)C(=O)Oc1cccc2c1OC(C)(C)C2	75.6
CCOC(=O)CN(SN(C)C(=O)Oc1cccc2c1OC(C)(C)C2)C(C)C	33
CN(SN(CCC#N)CCC#N)C(=O)Oc1cccc2c1OC(C)(C)C2	54
CCOC(=O)CN(SN(C)C(=O)Oc1cccc2c1OC(C)(C)C2)C(=O)CC	14.4

// next entry
Request: Complete the entry with LD50 for CCOC(=O)CN(SN(C)C(=O)Oc1cccc2c1OC(C)(C)C2)C(=O)OCC
Response: 16.2

* * *

Test system: house fly (Musca domestica)
Assay: Local application to house fly, LD50 by Probit method (Test Example 4)
Assay type: in vivo
Details: topical, 24 h
Classification by LD50 | ranges: low (below 30 mg/kg), moderate (30 mg/kg to below 50 mg/kg), high (50 mg/kg or more)

CCCCC(CC)COC(=O)CCN(SN(C)C(=O)Oc1cccc2c1OC(C)(C)C2)C(C)C (stereo not drawn) [Example 26]	high
CCCCCCCCN(CCC#N)SN(C)C(=O)Oc1cccc2c1OC(C)(C)C2 [Example 41]	high
COC(=O)CCN(SN(C)C(=O)Oc1cccc2c1OC(C)(C)C2)C(C)C [Example 24]	moderate
CC(C)CN(CCC#N)SN(C)C(=O)Oc1cccc2c1OC(C)(C)C2 [Example 40]	moderate
CCOC(=O)CCN(SN(C)C(=O)Oc1cccc2c1OC(C)(C)C2)C1CCCCC1 [Example 32]	moderate
CCCCCCCCN(CC(=O)OCC)SN(C)C(=O)Oc1cccc2c1OC(C)(C)C2 [Example 17]	moderate

Request: Please let me know in which category the item CC(C)N(CCC#N)SN(C)C(=O)Oc1cccc2c1OC(C)(C)C2 [Example 38] belongs.
Response: low

Request: For CCOC(=O)CN(C)SN(C)C(=O)Oc1cccc2c1OC(C)(C)C2 [Example 14] , which LD50 bin applies?
Response: low

Request: Given CCCCN(CCC(=O)OC)SN(C)C(=O)Oc1cccc2c1OC(C)(C)C2 [Example 28] , name the class its LD50 places it in.
Response: low

Request: Field: class (LD50) — entry: CN(SN(CC#N)c1ccccc1)C(=O)Oc1cccc2c1OC(C)(C)C2 [Example 35]
Response: high

Request: Quick check: band for CCOC(=O)N(CCC#N)SN(C)C(=O)Oc1cccc2c1OC(C)(C)C2 [Example 51]
Response: moderate

* * *

Here, each record is paired with measured LD50 at 168 h data.
Experiment: Acute oral toxicity in male mice, LD50 by Litchfield-Wilcoxon method (Test Example 5)
Settings: mouse, in vivo, mortality on the seventh day
All answers are understood in mg/kg, so give the number only.

Worked examples, 3 compounds total:
CCOC(=O)CN(SN(C)C(=O)Oc1cccc2c1OC(C)(C)C2)C(=O)CCl [Example 45]	80
CCOC(=O)CN(CC(=O)OCC)SN(C)C(=O)Oc1cccc2c1OC(C)(C)C2 [Example 2]	140
CCOC(=O)CN(Cc1ccc(Cl)cc1)SN(C)C(=O)Oc1cccc2c1OC(C)(C)C2 [Example 20]	75

Request: Entry CCCCN(CC#N)SN(C)C(=O)Oc1cccc2c1OC(C)(C)C2 [Example 33] needs its LD50 at 168 h filled in; supply it.
Response: 103

Request: Provide only the value of recorded LD50 at 168 h for CCOC(=O)CN(SN(C)C(=O)Oc1cccc2c1OC(C)(C)C2)c1cccc(C)c1 [Example 21]
Response: 105

Request: Give a short answer stating reported LD50 at 168 h for CCOC(=O)CN(SN(C)C(=O)Oc1cccc2c1OC(C)(C)C2)C(C)C [Example 15] .
Response: 110

Request: For the compound CCCCCCCCN(CCC#N)SN(C)C(=O)Oc1cccc2c1OC(C)(C)C2 [Example 41] , give its reported LD50 at 168 h.
Response: 105

Request: Give me measured LD50 at 168 h, please, for this compound: CCCCN(CC(=O)OCC)SN(C)C(=O)Oc1cccc2c1OC(C)(C)C2 [Example 12]
Response: 125

Request: Indicate the recorded LD50 at 168 h value for this compound: CCOC(=O)CN(SN(C)C(=O)Oc1cccc2c1OC(C)(C)C2)C(=O)Oc1ccccc1 [Example 50]
Response: 95

Request: Fill in reported LD50 at 168 h for this entry: CC(C)N(CC#N)SN(C)C(=O)Oc1cccc2c1OC(C)(C)C2 [Example 34]
Response: 95

Request: Using known records, supply LD50 at 168 h for CCOC(=O)CN(C)SN(C)C(=O)Oc1cccc2c1OC(C)(C)C2 [Example 14]
Response: 120
